Target: Beta-galactoside alpha-2,6-sialyltransferase 1 (Homo sapiens) (UniProt P15907)
Sequence (whole entry): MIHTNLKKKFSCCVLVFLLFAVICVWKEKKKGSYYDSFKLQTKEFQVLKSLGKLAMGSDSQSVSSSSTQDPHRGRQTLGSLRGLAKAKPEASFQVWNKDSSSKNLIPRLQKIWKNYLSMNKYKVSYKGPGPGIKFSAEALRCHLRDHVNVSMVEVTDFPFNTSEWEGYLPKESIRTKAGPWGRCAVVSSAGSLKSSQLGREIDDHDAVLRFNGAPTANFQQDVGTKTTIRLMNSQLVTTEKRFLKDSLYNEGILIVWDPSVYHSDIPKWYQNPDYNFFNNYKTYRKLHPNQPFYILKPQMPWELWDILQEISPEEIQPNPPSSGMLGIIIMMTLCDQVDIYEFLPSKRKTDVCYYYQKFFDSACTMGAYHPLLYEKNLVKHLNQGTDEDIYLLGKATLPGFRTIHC
Experiment: Inhibition of recombinant human N-terminal His tagged ST6GAL1 (44 to 406 residues) at 50 uM by UPLC-based assay relative to control
Kindly supply the reported inhibition values for the records listed here.
Numbers only, in %.

# count of solved cases: 3
{"columns": ["Given smiles", "Target", "inhibition [%]"],
 "data": [
  ["C[C@H](CCC(=O)O)[C@H]1CC[C@H]2[C@@H]3C[C@H](O)[C@@H]4C[C@H](O)CC[C@]4(C)[C@H]3CC[C@]12C", "Beta-galactoside alpha-2,6-sialyltransferase 1 (Homo sapiens) (UniProt P15907)", 0],
  ["C[C@H](CCCS(=O)(=O)O)[C@H]1CC[C@H]2[C@@H]3CC[C@@H]4C[C@H](O)CC[C@]4(C)[C@H]3CC[C@]12C", "Beta-galactoside alpha-2,6-sialyltransferase 1 (Homo sapiens) (UniProt P15907)", 100],
  ["C[C@H](CCCOS(=O)(=O)O)[C@H]1CC[C@H]2[C@@H]3CC[C@@H]4C[C@H](OS(=O)(=O)O)CC[C@]4(C)[C@H]3CC[C@]12C", "Beta-galactoside alpha-2,6-sialyltransferase 1 (Homo sapiens) (UniProt P15907)", 100]
]}

Query: Recall and state the measured inhibition for C[C@H](CCC(=O)O)[C@H]1CC[C@H]2[C@@H]3CC[C@@H]4C[C@H](O)CC[C@]4(C)[C@H]3CC[C@]12C .
Result: 0

Every entry's value here was drawn from ChEMBL document CHEMBL5634174.
